# target or system: T1, Soluble IGF-1R (sIGF-1R), R&D Systems Cat. # 391-GR/CF (UniProt P08069 31-935, limits assumed)
# T1 construct: extracellular domain
# run description: phage ELISA
Listed next: entries and their corresponding Ratio over Background.
The response must contain the number and no unit.

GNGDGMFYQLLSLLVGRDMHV [20E2B-3-02-IGFR]	8.9
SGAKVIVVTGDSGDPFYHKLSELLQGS [B6Hα-2-C10-IR]	5.8
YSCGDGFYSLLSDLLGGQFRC [20E2B-4-H12-IGFR]	9.7
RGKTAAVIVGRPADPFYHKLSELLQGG [B6Hα-3-E8-IR]	5.3
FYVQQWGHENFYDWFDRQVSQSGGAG [H2CA-4-F1-IGFR]	3.5

Now consider the entry below.
Per the record, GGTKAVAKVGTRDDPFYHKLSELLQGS [B6Hα-4-G8-IR] has Ratio over Background of 6.1
